target: Hydrolase, alpha/beta hydrolase fold family (Mycobacterium tuberculosis) (UniProt O69638); assay: Inhibition of Mycobacterium tuberculosis recombinant EphE expressed in Escherichia coli BL21 using CMNPC as substrate at 10 nM after 30 mins by fluorescent assay relative to control
Sequence (O69638 as listed by the source): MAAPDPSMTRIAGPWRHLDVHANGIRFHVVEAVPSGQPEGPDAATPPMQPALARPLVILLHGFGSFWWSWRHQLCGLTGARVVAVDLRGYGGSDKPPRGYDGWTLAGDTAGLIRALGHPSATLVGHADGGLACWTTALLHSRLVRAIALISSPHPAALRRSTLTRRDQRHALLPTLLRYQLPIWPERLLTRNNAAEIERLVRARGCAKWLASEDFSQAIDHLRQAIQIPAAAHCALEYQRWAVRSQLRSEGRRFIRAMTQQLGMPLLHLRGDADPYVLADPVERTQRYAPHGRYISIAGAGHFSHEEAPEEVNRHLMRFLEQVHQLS
# inhibition >= 60% gives True, anything below gives False

                                    compound  category
 0  N#Cc1ccc(NC(=O)NC2C3CC4CC(C3)CC2C4)cc1 (configuration not stated)      True
 1          Cc1ccc(NC(=O)NCc2cccc(F)c2)cc1Cl     False
 2  Fc1ccc(NC(=S)NC2C3CC4CC(C3)CC2C4)c(F)c1F (configuration not stated)     False
 3             CCCCCCCNC(=O)Nc1ccc(C)c(Cl)c1      True
 4  CC(C)NC(=O)NC1C2CC3CC(C2)CC1C3 (configuration not stated)     False
 5  CC(C)(C)NC(=O)NC1C2CC3CC(C2)CC1C3 (configuration not stated)     False
 6      O=C(Nc1cccc(C(F)(F)F)c1F)NC1CCCCCCC1     False
 7  O=C(NCC12CC3CC(CC(C3)C1)C2)Nc1ccc(F)c(F)c1F      True
 8            Cc1ccc(NC(=O)NC2CCCCCCC2)cc1Cl      True
 9  O=C(Nc1ccc(F)c(F)c1F)NC1C2CC3CC(C2)CC1C3 (configuration not stated)      True
10          COCCCNC(=O)NC12CC3CC(CC(C3)C1)C2     False
11       CC(C)OCCNC(=O)NC12CC3CC(CC(C3)C1)C2     False

Cited source: ChEMBL document CHEMBL1817626
